B1: EHEE_rd2_1257 (parent)
chain: EEERTFTNEEEARKAKKEAEKRGLRVTVTKDGTTWRVRIG

variants of: B1; assay: folding stability dG (cDNA display proteolysis); higher = more stable; settings: PBS, room temperature
REPORTED PROPERTY: folding stability dG

Examples with their reported folding stability dG follow.
INSERT INTO results (alteration, result) VALUES
  ('N8I', '1.39 kcal/mol'),
  ('T27F', '1.83 kcal/mol'),
  ('R22K', '1.8 kcal/mol'),
  ('R13T', '2.12 kcal/mol');

Qu. Give its folding stability dG value. Item: `G32N`
Ans. 0.966 kcal/mol

Qu. One more variant: `E10I`
Ans. 1.98 kcal/mol

Qu. One more variant: `K30W`
Ans. 3.02 kcal/mol

Qu. One more variant: `K21S`
Ans. 2.38 kcal/mol

Qu. One more variant: `K30I`
Ans. 1.66 kcal/mol
